These measurements were taken from patent US8669260B2.

Target: PXR (Homo sapiens, UniProt O75469)
Sequence (O75469 whole entry): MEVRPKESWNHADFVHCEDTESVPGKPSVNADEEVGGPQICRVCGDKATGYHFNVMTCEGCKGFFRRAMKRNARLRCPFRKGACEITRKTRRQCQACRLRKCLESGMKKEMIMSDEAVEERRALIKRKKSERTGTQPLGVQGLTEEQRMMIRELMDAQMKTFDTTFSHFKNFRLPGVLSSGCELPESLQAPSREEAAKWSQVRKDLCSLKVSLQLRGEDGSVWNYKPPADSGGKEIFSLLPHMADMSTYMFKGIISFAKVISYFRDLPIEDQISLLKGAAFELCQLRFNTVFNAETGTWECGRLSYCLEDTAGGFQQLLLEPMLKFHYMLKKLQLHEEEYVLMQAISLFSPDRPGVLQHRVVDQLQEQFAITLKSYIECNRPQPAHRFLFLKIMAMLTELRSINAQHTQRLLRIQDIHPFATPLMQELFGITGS
Assay: cell-based
Design: expressed in transfected cells; host or cells: HepG2
reportedMetric: IC50
Report the figure along with its unit, number first.

// recorded IC50 for CC(=O)N1CCN(c2ccc(OCC3COC(Cn4ccnc4)(c4ccc(Cl)cc4Cl)O3)cc2)CC1 (stereo not shown) : 18.7 µM

---

Target: UniProt:O75469
Experiment: PXR transactivation assay (activation mode), HepG2 cells transfected with human PXR-pcDNA3 and CYP3A-Luc
Assay type: cell-based
Parameters: expressed in transfected cells; host or cells: HepG2
Details: non-linear regression analysis; read-out: PXR Activation EC50
pEC50: −log10 of the molar value.
reportedMetric: pEC50

// recorded pEC50 for CC(=O)N1CCN(c2ccc(OC[C@H]3CO[C@@](C)(c4ccc(Cl)cc4Cl)O3)cc2)CC1 [UCL2158H] : < 4.30
